organism: Homo sapiens; test: Selectivity ratio of Ki for human dopamine D2 receptor to Ki for human dopamine D3 receptor
Property measured: Ratio Ki
Hey, just send me the number, nothing else.

Solved cases below.
COc1ccccc1N1CCN(CC(O)CCn2cc(-c3ccccc3)nn2)CC1 (racemic)	7
OC(CCn1cc(-c2ccc(-c3ccccc3)cc2)nn1)CN1CCN(c2cccc(Cl)c2Cl)CC1 (racemic)	270
Clc1cccc(N2CCN(CCCCn3cc(-c4ccc5ccccc5c4)nn3)CC2)c1Cl	13
Clc1cccc(N2CCN(CCCCn3cc(-c4ccc5ncccc5c4)nn3)CC2)c1Cl	40
O=C(NCCC(O)CN1CCN(c2cccc(Cl)c2Cl)CC1)c1cnc2ccccc2c1 (configuration not stated)	110

## Task Name the recorded Ratio Ki for OC(CCn1cc(-c2ccc3ccccc3c2)nn1)CN1CCN(c2cccc(Cl)c2Cl)CC1 (racemic) .
## Result 745

## Task Name the recorded Ratio Ki for `COc1ccccc1N1CCN(CCCCn2cc(-c3ccc4[nH]ccc4c3)nn2)CC1` .
## Result 8

## Task Name the recorded Ratio Ki for `Clc1cccc(N2CCN(CCCCc3cn(-c4ccc5[nH]ccc5c4)nn3)CC2)c1Cl` .
## Result 47

## Task Name the recorded Ratio Ki for OC(CCn1cc(-c2ccc3[nH]ccc3c2)nn1)CN1CCN(c2cccc(Cl)c2Cl)CC1 (racemic) .
## Result 165

## Task Name the recorded Ratio Ki for `COc1ccccc1N1CCN(CCCCn2cc(-c3ccc4ccccc4c3)nn2)CC1` .
## Result 2.1
